Test system: MOLM-13
assayProcedure: Cell growth inhibition, MOLM-13 leukemia cells (CellTiter-Glo)
Format: cell-based
conditionNotes: Homo sapiens, MOLM-13, 96 h; 4 days; read-out: IC50 (nM) MOLM-13 Cell Line (CellTiter-Glo assay)
measurementName: IC50 (nM)

{"columns": ["smilesEntry", "quantitativeResult"],
 "data": [
  ["COc1cc2c(cc1-c1c(C)noc1C)[nH]c1nc(C)nc(Nc3c[nH]nc3-c3ccccc3)c12", 68],
  ["COc1cc2c(cc1-c1c(C)noc1C)[nH]c1nc(C)nc(Nc3cc(C)nn3C3CCC3)c12", 38.8],
  ["COc1cc2c(cc1-c1c(C)noc1C)[nH]c1nc(C)nc(Nc3n[nH]c(C)c3-c3ccccc3)c12", 475],
  ["COc1cc2c(cc1-c1c(C)noc1C)[nH]c1nc(C)nc(Nc3cc(C)nn3-c3cccc(Cl)c3)c12", 56.3]
]}

----------
Tested on: MDA-MB-436
assayProcedure: Cell growth inhibition, MDA-MB-436 breast cancer cells (WST-8)
Type: cell-based
conditionNotes: Homo sapiens, MDA-MB-436, 96 h; 4 days; read-out: IC50 (nM) MDA-MB-436 Cell Line (WST assay)
Consider the following molecules and their measured IC50 readings.
measurementName: IC50 (nM)

{"columns": ["smilesEntry", "quantitativeResult"],
 "data": [
  ["COc1cc2c(cc1-c1c(C)noc1C)[nH]c1nc(C)nc(Oc3cncc(Br)c3)c12", 885],
  ["CCc1cccc(Nc2nc(C)nc3[nH]c4cc(-c5c(C)noc5C)c(OC)cc4c23)c1", 292],
  ["COc1cc2c(cc1-c1c(C)noc1C)[nH]c1nc(C)nc(Nc3c(C4CC4)nn(C)c3C3CC3)c12", 43],
  ["COc1cc2c(cc1-c1c(C)noc1C)[nH]c1nc(C)nc(Nc3csc4ncccc34)c12", 120],
  ["CCn1cc(Nc2nc(C)nc3[nH]c4cc(-c5c(C)noc5C)c(OC)cc4c23)c(C(C)C)n1", 67.9],
  ["COc1cc2c(cc1-c1c(C)noc1C)[nH]c1nc(C)nc(Nc3cc(C4(C)CC4)nn3C)c12", 23],
  ["COc1cc2c(cc1-c1c(C)noc1C)[nH]c1nc(C(C)C)nc(Nc3nn(C)c4ccccc34)c12", 141]
]}

----------
Tested on: MOLM-13
assayProcedure: Cell growth inhibition, MOLM-13 leukemia cells (CellTiter-Glo)
Assay type: cell-based
conditionNotes: Homo sapiens, MOLM-13, 96 h; 4 days; read-out: IC50 (nM) MOLM-13 Cell Line (CellTiter-Glo assay)
Measured IC50 accompanies every entry in the list below.
measurementName: IC50 (nM)

{"columns": ["smilesEntry", "quantitativeResult"],
 "data": [
  ["COc1cc2c(cc1-c1c(C)noc1C)[nH]c1nc(C)nc(Nc3nnc4ccccn34)c12", 266],
  ["COc1cc2c(cc1-c1c(C)noc1C)[nH]c1nc(C)nc(Nc3cccc(Cl)c3F)c12", 498],
  ["COc1cc2c(cc1-c1c(C)noc1C)[nH]c1nc(C)nc(Nc3ccccc3)c12", 94],
  ["COc1cc2c(cc1-c1c(C)noc1C)[nH]c1nc(C)nc(Nc3ccnn3C(C)C)c12", 40.5],
  ["COc1cc2c(cc1-c1c(C)noc1C)[nH]c1nc(C)nc(Nc3cccc(C(F)(F)F)c3)c12", 208],
  ["COc1cc2c(cc1-c1c(C)noc1C)[nH]c1nc(C)nc(Oc3ccnc4ccccc34)c12", 603],
  ["COc1cc2c(cc1-c1c(C)noc1C)[nH]c1nc(C)nc(Nc3nn(C)c4c3CCCC4)c12", 41.9],
  ["COc1cc2c(cc1-c1c(C)noc1C)[nH]c1nc(C)nc(Nc3cc(C(F)(F)F)nn3C)c12", 21.9],
  ["COc1cc2c(cc1-c1c(C)noc1C)[nH]c1nc(C)nc(Nc3c(C4CC4)c(C)nn3C)c12", 120],
  ["COc1cc2c(cc1-c1c(C)noc1C)[nH]c1nc(C)nc(Nc3nn(C)c4cccnc34)c12", 759],
  ["COc1cc2c(cc1-c1c(C)noc1C)[nH]c1nc(C)nc(Nc3c(-c4ccccc4)nn(C(C)C)c3C)c12", 69.3],
  ["COc1cc2c(cc1-c1c(C)noc1C)[nH]c1nc(C)nc(Nc3cc(C4CCC4)nn3C)c12", 26.6],
  ["CCc1nn(C)cc1Nc1nc(C)nc2[nH]c3cc(-c4c(C)noc4C)c(OC)cc3c12", 34.8],
  ["COc1cc2c(cc1-c1c(C)noc1C)[nH]c1nc(C)nc(Nc3c(C)cnn3C3CCC3)c12", 25.7],
  ["COc1cc2c(cc1-c1c(C)noc1C)[nH]c1nc(C)nc(Nc3cccc4ncsc34)c12", 69],
  ["COc1cc2c(cc1-c1c(C)noc1C)[nH]c1nc(C)nc(Nc3cnc4ccccn34)c12", 206]
]}
